The entries below are paired with their reported Ki.
# experimental-system: DDR2 (Homo sapiens)
# Construct: purchased Life Technologies
# Sequence (Q16832 22-855): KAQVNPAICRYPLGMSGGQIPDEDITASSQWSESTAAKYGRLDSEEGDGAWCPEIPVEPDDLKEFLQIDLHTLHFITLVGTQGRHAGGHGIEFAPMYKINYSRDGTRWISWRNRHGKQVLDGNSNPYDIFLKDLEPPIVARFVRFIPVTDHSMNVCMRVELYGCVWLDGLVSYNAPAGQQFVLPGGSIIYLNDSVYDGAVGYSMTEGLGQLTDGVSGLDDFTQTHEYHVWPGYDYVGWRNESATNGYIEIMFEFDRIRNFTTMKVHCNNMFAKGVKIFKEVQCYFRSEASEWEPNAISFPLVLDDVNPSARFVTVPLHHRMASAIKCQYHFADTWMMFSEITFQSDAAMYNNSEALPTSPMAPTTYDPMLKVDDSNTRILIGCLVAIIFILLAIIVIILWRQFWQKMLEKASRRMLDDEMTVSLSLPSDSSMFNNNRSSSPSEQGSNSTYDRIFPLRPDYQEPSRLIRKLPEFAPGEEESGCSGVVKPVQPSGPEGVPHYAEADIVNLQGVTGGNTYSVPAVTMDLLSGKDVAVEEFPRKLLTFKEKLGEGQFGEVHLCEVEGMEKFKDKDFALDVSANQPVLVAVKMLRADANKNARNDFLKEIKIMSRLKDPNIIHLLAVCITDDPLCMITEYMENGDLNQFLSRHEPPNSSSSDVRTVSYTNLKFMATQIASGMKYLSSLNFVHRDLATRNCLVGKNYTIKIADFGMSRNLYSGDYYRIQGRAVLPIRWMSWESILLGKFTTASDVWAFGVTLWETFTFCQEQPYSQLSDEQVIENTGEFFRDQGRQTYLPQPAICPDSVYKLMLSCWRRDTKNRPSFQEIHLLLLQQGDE
# protocol-summary: LanthaScreen Europium Kinase Binding assay, DDR2
# experimental-setup: 5 nM DDR2, 10 nM Kinase Tracer 178, 1 h at rt; Ki from IC50 by Cheng-Prusoff; read-out: Ki DDR2

Examples from the recorded data:
CC(=O)Nc1cncc(OC2CN(c3cc(C(=O)Nc4cncc(C(F)(F)F)c4)ccc3C)C2)c1 [Example 133]: < 5 nM
Cc1ccc(C(=O)Nc2cncc(C(F)(F)F)c2)cc1[C@@H]1CCN(c2cnn3ccc(N4CCN(C)CC4)nc23)C1 [Example 83]: 5 to 25 nM
Cc1ccc(C(=O)Nc2cc(C(C)(C)C(F)(F)F)on2)cc1[C@@H]1CCN(c2cnccc2C#N)C1 [Example 55]: < 5 nM

Just so you know, measured Ki for Cc1ccc(C(=O)Nc2cncc(C(F)(F)F)c2)cc1[C@@H]1CCN(c2cnc3ccc(N4CCOCC4)nn23)C1 [Example 84] came out at 5 to 25 nM

Just so you know, measured Ki for COc1cnc2c(N3CC[C@@H](c4cc(C(=O)Nc5cncc(C(F)(F)F)c5)ccc4C)C3)cnn2c1 [Example 97] came out at 5 to 25 nM

Just so you know, measured Ki for Cc1ccc(C(=O)Nc2cncc(C(F)(F)F)c2)cc1[C@@H]1CCN(c2cnc3ccc(N4CCN(C)CC4)nn23)C1 [Example 80] came out at 5 to 25 nM

----------
# experimental-system: DDR2 (Homo sapiens)
# Construct: purchased Life Technologies
# protocol-summary: LanthaScreen Europium Kinase Binding assay, DDR2
# experimental-setup: 5 nM DDR2, 10 nM Kinase Tracer 178, 1 h at rt; Ki from IC50 by Cheng-Prusoff; read-out: Ki DDR2
observable: Ki

Examples from the recorded data:
Cc1ccc(C(=O)Nc2cc(C(C)(C)C)nn2C)cc1[C@@H]1CCN(c2cncnc2)C1: 5 to 25 nM
Cc1ccc(C(=O)Nc2cncc(C(F)(F)F)c2)cc1[C@@H]1CCN(c2cnc3cnccn23)C1: < 5 nM
CC(=O)Nc1ccc(OC2CN(c3cc(C(=O)Nc4cncc(C(F)(F)F)c4)ccc3C)C2)cn1: 5 to 25 nM
Cc1ccc(C(=O)Nc2cc(OC(F)F)ccn2)cc1[C@@H]1CCN(c2cnccn2)C1: 5 to 25 nM

Just so you know, measured Ki for Cc1ccc(C(=O)Nc2ccc(OC(F)(F)F)cn2)cc1[C@@H]1CCN(c2cncc(C(N)=O)c2)C1 came out at 5 to 25 nM

Just so you know, measured Ki for COc1ccc(C(=O)Nc2cncc(C(F)(F)F)c2)cc1C1CCN(c2cncnc2)C1 (single isomer, unassigned) [Example 109] came out at < 5 nM

Just so you know, measured Ki for Cc1ccc(C(=O)Nc2cc(C(C)(C)C)on2)cc1[C@@H]1CCN(c2cncnc2)C1 came out at < 5 nM

Just so you know, measured Ki for Cc1ccc(C(=O)Nc2cc(OC(F)F)ccn2)cc1[C@@H]1CCN(c2cnn3cccnc23)C1 came out at < 5 nM

Just so you know, measured Ki for O=C(Nc1cncc(C(F)(F)F)c1)c1ccc(OC(F)F)c(C2CCN(c3cncnc3)C2)c1 (single isomer, unassigned) [Example 117] came out at < 5 nM

Just so you know, measured Ki for Cc1ccc(C(=O)Nc2cc(OC(F)(F)F)ccn2)cc1[C@@H]1CCN(c2ccnc(C(N)=O)c2)C1 came out at 5 to 25 nM

Just so you know, measured Ki for Cc1ccc(C(=O)Nc2cncc(C(F)(F)F)c2)cc1[C@@H]1CCN(c2cncc(C(=O)N[C@H]3C[C@@H](O)C3)c2)C1 came out at < 5 nM

Just so you know, measured Ki for Cc1ccc(C(=O)Nc2cc(C3CC3)nn2C)cc1[C@@H]1CCN(c2cncnc2)C1 came out at 25 to 100 nM

Just so you know, measured Ki for Cc1ccn2ncc(N3CC[C@@H](c4cc(C(=O)Nc5cncc(C(F)(F)F)c5)ccc4C)C3)c2n1 came out at 5 to 25 nM

Just so you know, measured Ki for Cc1ccc(C(=O)Nc2cncc(C(F)(F)F)c2)cc1[C@@H]1CCN(c2nccn3cncc23)C1 came out at 5 to 25 nM

Just so you know, measured Ki for Cc1ccc(C(=O)Nc2cncc(C(F)(F)F)c2)cc1[C@@H]1CCN(c2cncc(C(F)F)c2)C1 came out at 5 to 25 nM

----------
# experimental-system: DDR2 (Homo sapiens)
# Construct: purchased Life Technologies
# protocol-summary: LanthaScreen Europium Kinase Binding assay, DDR2
# experimental-setup: 5 nM DDR2, 10 nM Kinase Tracer 178, 1 h at rt; Ki from IC50 by Cheng-Prusoff; read-out: Ki DDR2
observable: Ki

COc1ccncc1N1CC[C@@H](c2cc(C(=O)Nc3cncc(C(F)(F)F)c3)ccc2C)C1: < 5 nM
Cc1ccc(C(=O)Nc2cncc(C(F)(F)F)c2)cc1N1CC(Oc2cncc(N)c2)C1: 5 to 25 nM
Cn1nc(NC(=O)c2ccc(C(F)F)c(C3CCN(c4cncnc4)C3)c2)cc1C(C)(C)C (stereo not shown): 5 to 25 nM
Cc1ccc(C(=O)Nc2cncc(C(F)(F)F)c2)cc1[C@@H]1CCN(c2ncnc3sccc23)C1: 5 to 25 nM
Cc1ccc(C(=O)Nc2cncc(C(F)(F)F)c2)cc1[C@@H]1CCN(c2cncc(C(=O)NC3COC3)c2)C1: < 5 nM
Cc1ccc(C(=O)Nc2cncc(C(F)(F)F)c2)cc1[C@@H]1CCN(c2cccnc2N)C1: < 5 nM

From here, focus on the item given below.
Just so you know, measured Ki for Cc1ccc(C(=O)Nc2cncc(C(F)(F)F)c2)cc1[C@@H]1CN(c2cncnc2)C[C@H]1O (racemic) came out at 5 to 25 nM

----------
The entries below are paired with their reported pKi.
# experimental-system: DDR2 (Homo sapiens, UniProt Q16832)
# Construct: purchased Life Technologies
# protocol-summary: LanthaScreen Europium Kinase Binding assay, DDR2
# experimental-setup: 5 nM DDR2, 10 nM Kinase Tracer 178, 1 h at rt; Ki from IC50 by Cheng-Prusoff; read-out: Ki DDR2
pKi: −log10 of the molar value.

Cc1ccc(C(=O)Nc2cc(C(F)(F)F)ncn2)cc1[C@@H]1CCN(c2cncc(C#N)c2)C1: 7.60 to 8.30
Cc1ccc(C(=O)Nc2cc(C(C)(C)C)n(C)n2)cc1[C@@H]1CCN(c2cncc(C(N)=O)c2)C1: > 8.30
COc1ccc(C(=O)Nc2cncc(C(F)(F)F)c2)cc1C1CCN(c2cnn3cccnc23)C1 (single isomer, unassigned) [Example 114]: 7.60 to 8.30
Cc1ccc(C(=O)Nc2cncc(C(F)(F)F)c2)cc1[C@@H]1CCN(c2cccc(C(N)=O)c2)C1: 7.00 to 7.60
Cc1ccc(C(=O)Nc2cncc(C(F)(F)F)c2)cc1[C@@H]1CCN(c2cnccc2C#N)C1: > 8.30
Cc1ccc(C(=O)Nc2ccc(OC(F)(F)F)cn2)cc1[C@@H]1CCN(c2cncnc2)C1: 7.60 to 8.30

From here, focus on the item given below.
Just so you know, measured pKi for CCc1cc(NC(=O)c2ccc(C)c([C@@H]3CCN(c4cnn5cccnc45)C3)c2)no1 came out at > 8.30

----------
# experimental-system: DDR2 (Homo sapiens, UniProt Q16832)
# Construct: purchased Life Technologies
# protocol-summary: LanthaScreen Europium Kinase Binding assay, DDR2
# experimental-setup: 5 nM DDR2, 10 nM Kinase Tracer 178, 1 h at rt; Ki from IC50 by Cheng-Prusoff; read-out: Ki DDR2
pKi: −log10 of the molar value.
observable: pKi

Examples from the recorded data:
Cc1ccc(C(=O)Nc2cncc(C(F)(F)F)c2)cc1[C@@H]1CCN(c2ncnc3cc(C(=O)N4CCOCC4)sc23)C1: 7.60 to 8.30
CNC(=O)c1cncc(N2CC[C@@H](c3cc(C(=O)Nc4cncc(C(F)(F)F)c4)ccc3C)C2)c1: > 8.30
Cc1ccc(C(=O)Nc2cncc(C(F)(F)F)c2)cc1[C@@H]1CCN(c2cnn3cccnc23)C1: > 8.30

Just so you know, measured pKi for Cc1ccc(C(=O)Nc2cc(C(C)(C)C)n(C)n2)cc1[C@@H]1CCN(c2cncnc2)C1 came out at > 8.30
